Overview of recorded growth for various compounds
System: SK-OV-3 ovarian
assayRemarks: NCI-60 one-dose screen, 48 h (100 = growth as untreated, 0 = no growth, -100 = all killed)
cond: 10 µM unless noted
This is part of a sample that, as a whole, favours compounds with a hit. Of some 83,000 tested, about 20% had one in any assay.
property: growth (%)

{"columns": ["compound", "property", "dataValue"],
 "data": [
  ["Cn1ccnc1C(=O)/C=C/c1ccc(C(=O)Nc2ccccc2F)cc1", "growth", 51.9],
  ["Nc1cc(-c2ccc(Cl)cc2)nn1-c1nc(-c2ccc(Br)cc2)cs1", "growth", 92.4],
  ["Nc1ncc(-c2ccc3ncnc(N4CCc5ccc(Cl)cc54)c3c2)cn1", "growth", -22.2],
  ["Oc1c(Cl)cc(Cl)c2ccc(CN3CCNCC3)nc12", "growth", 52.8],
  ["CSc1nc(CC(C)C)c(C#N)c(=O)n1C", "growth", 87.7],
  ["COc1ccc(NC(=O)c2sc3nc(C)c(C(=O)c4ccccc4)cc3c2N)cc1", "growth", 92.6],
  ["Cc1ccc2c(c1)CC(O)CC1C(=O)N(CCO)CC(=O)N21 (configuration not stated)", "growth", 103],
  ["O=C1c2c(c3c4cc(F)ccc4oc3c3[nH]c4ccccc4c23)C(=O)N1O", "growth", 55.7],
  ["CCn1c2ccccc2c2cc(C(O)c3cccc4ncccc34)ccc21 (configuration not stated)", "growth", 69.1],
  ["COc1ccc(CNc2c3ccccc3nc3ccccc23)cc1OC", "growth", 41.2],
  ["CCCCCC(C)(O)C(C(=O)O)c1ccccc1 (configuration not stated)", "growth", 101],
  ["Brc1ccc(-c2nn(-c3ccccc3)cc2-c2nn[nH]n2)s1", "growth", 98.2],
  ["c1ccc2cc(Cn3cc[n+](Cc4ccc5ccccc5c4)c3)ccc2c1", "growth", 33.2],
  ["CC1(C)CC[C@]2(CO)CC[C@]3(C)C(=CC[C@@H]4[C@@]5(C)CCNCC(C)(C)[C@@H]5CC[C@]43C)[C@@H]2C1", "growth", 95.4],
  ["CCCC[N+]1(C)CCN=C1Cc1ccccc1 (configuration not stated)", "growth", 109],
  ["O=C(NCCN1CCOCC1)c1cncnc1Nc1ccc2c(ccn2Cc2ccccn2)c1", "growth", 95.4],
  ["CC(C)n1cc(C2=C(c3cccc4ccccc34)C(=O)NC2=O)c2cc(Br)ccc21", "growth", 64],
  ["COc1ccc2c(c1)c(-c1nc(-c3cn(C)c4ccncc34)cs1)cn2C", "growth", 119],
  ["Cc1cc(C(=O)Nc2cc(Nc3ncccc3-c3ncnc4nc[nH]c34)ccc2F)cc(C(C)(C)C#N)c1", "growth", 87],
  ["Cc1c2cnccc2c(C)c2c1c1cc(C(=O)O)ccc1n2C", "growth", -4.58],
  ["O=C(Nc1ncc(Cc2ccc(Cl)cc2)s1)c1ccc2c(c1)OCCO2", "growth", 33.4],
  ["NS(=O)(=O)Oc1cccc(-c2nc3sccn3c2-c2ccccc2)c1", "growth", 76.7],
  ["Cc1ccc(OCCOCCOCCOCCOc2ccc(C)n(O)c2=S)c(=S)n1O", "growth", 0.0112],
  ["CCCCC/C=C/CCC(=O)N[C@H]1[C@H](Oc2c3cc4cc2Oc2ccc(cc2Cl)[C@@H](O[C@@H]2O[C@H](CO)[C@@H](O)[C@H](O)[C@H]2NC(C)=O)[C@@H]2NC(=O)[C@H](NC(=O)[C@@H]4NC(=O)[C@H]4NC(=O)[C@@H](Cc5ccc(c(Cl)c5)O3)NC(=O)[C@@H](N)c3ccc(O)c(c3)Oc3cc(O)cc4c3)c3ccc(O)c(c3)-c3c(O[C@H]4O[C@H](CO)[C@@H](O)[C@H](O)[C@@H]4O)cc(O)cc3[C@H](C(=O)O)NC2=O)O[C@H](CO)[C@H](O)[C@@H]1O", "growth", 111],
  ["CC(C)CCc1nc2ccc(NCc3ccc(OCCN4CCC(C)CC4)cc3)cc2[nH]1", "growth", 102],
  ["Cc1ccc2nc(/C=C/c3ccc(N(C)C)cc3)cc(C)c2c1", "growth", 31.4],
  ["COC(=O)c1nc(-c2ccc(C)cc2)oc1N1CCOCC1", "growth", 94.9],
  ["C=CC(=O)NCc1cccc(Nc2ncc(Br)c(NCCCNC(=O)C3CCC3)n2)c1", "growth", -42],
  ["COc1cc2c(c(OC)c1OC)CCC(c1cccc(C(=O)Nc3ccc([N+](=O)[O-])cc3)c1)O2 (configuration not stated)", "growth", 78.4],
  ["C=CCn1c(SCC(=O)Nc2ccc(C(=O)/C=C/c3cc(OC)c(OC)c(OC)c3)cc2)nnc1-c1cc(-c2ccc(S(N)(=O)=O)cc2)nc2ccccc12", "growth", 111],
  ["O=C(/C=C/c1cccc([N+](=O)[O-])c1)c1ccc(Nc2nc(Nc3ccc(F)cc3)nc(Nc3ccc(Cl)cc3)n2)cc1", "growth", 110],
  ["FC(F)(F)c1cccc(-c2nnn(Cc3cc(-c4cccc(Cl)c4)no3)n2)c1", "growth", 98.8],
  ["COc1cc(C(=O)n2nc(NCCCc3ccccc3)c3cc(N)ccc32)cc(OC)c1OC", "growth", 104],
  ["COc1cc2c(cc1OC)CC[N+](CCC[N+](C)(C)C)=C2", "growth", 92.9],
  ["O=C(N/N=C/c1ccccc1Cl)c1ccccc1Nc1ccnc(C(F)(F)F)c1", "growth", -8.48],
  ["COc1cc2c(c(OC)c1OC)CCC(c1cccc(C(=O)Nc3ccccc3Br)c1)O2 (configuration not stated)", "growth", 81],
  ["CN1C(=O)N(C)C2C1NN=c1s/c(=C\\c3ccc(F)cc3)c(=O)n12 (configuration not stated)", "growth", 33.1]
]}

====

Tested on: 786-0 renal
assayRemarks: NCI-60 one-dose screen, 48 h (100 = growth as untreated, 0 = no growth, -100 = all killed)
cond: 10 µM unless noted
Method: Cells are grown in 96 well plates and exposed to the test compound for 48 hours. Compounds are tested at a single concentration, which is 10^-5 M for most compounds. The reported endpoint is percent growth (GI% or GIPRCNT), where numbers from 0 - 100% represent growth inhibition, and numbers from -100% - 0 represent cell death. For example, a value of 40 represents 60% growth inhibition. A value of 0 means no net growth occurred over the course of the experiment. […]
The panel holds about 83,000 compounds, 20% with a hit somewhere; the sample as a whole holds those more often. Activity calls are given as the source filed them. How the source made its calls: active means growth percent below 10; inactive means the rest.
property: growth

{"columns": ["compound", "assayedSystem", "property", "dataValue"],
 "data": [
  ["Cn1ccnc1C(=O)/C=C/c1ccc(C(=O)Nc2ccccc2F)cc1", "786-0 renal", "growth", "18.5% (inactive)"],
  ["Cc1nc2c(c(-c3ccccc3)n1)Cc1c(ccc3ccccc13)O2", "786-0 renal", "growth", "98.7% (inactive)"],
  ["COc1cc(NC(=O)c2cncnc2Nc2ccc3c(ccn3Cc3cccc(F)c3)c2)cc(OC)c1", "786-0 renal", "growth", "81.1% (inactive)"],
  ["CCN1CCN(c2nc(NNC(=O)c3ccc(OC)cc3)nc(N3CCN(C(c4ccccc4)c4ccccc4)CC3)n2)CC1", "786-0 renal", "growth", "22.9% (inactive)"],
  ["O=C1C(c2c(O)[nH]c3ncccc23)=Nc2ccccc21", "786-0 renal", "growth", "84.1% (inactive)"],
  ["CNc1nc2ncc(-c3c(C)noc3C)cc2n1Cc1ccccc1", "786-0 renal", "growth", "43.3% (inactive)"],
  ["CC/C(=C(/c1ccc(Cl)cc1)c1ccc(OCCCN(C)C)cc1)c1ccc(OC)cc1", "786-0 renal", "growth", "57.9% (inactive)"],
  ["COc1ccc(S(=O)(=O)Oc2ccc(-c3sc4cc(OS(=O)(=O)c5ccc(OC)cc5)ccc4c3C(=O)c3ccc(OCCN4CCCCC4)cc3)cc2)cc1", "786-0 renal", "growth", "93% (inactive)"],
  ["N#C/C(Sc1nc2sc3c(c2c(=O)n1Cc1ccccc1)CCCC3)=C1/SC=C(c2ccc(Cl)cc2)N1c1ccccc1", "786-0 renal", "growth", "87.4% (inactive)"],
  ["Nc1ncnc2c1N=C(c1ccc([N+](=O)[O-])cc1)CC(c1ccc3c(c1)OCO3)N2 (configuration not stated)", "786-0 renal", "growth", "98.7% (inactive)"],
  ["CC(C)(C)n1cc(-c2ccnc(NCCNS(=O)(=O)c3ccc(Br)cc3)c2)c(-c2cccc(O)c2)n1", "786-0 renal", "growth", "21.2% (inactive)"],
  ["N/C(=N\\c1nc2ccccc2s1)NC(=O)Nc1ccccc1", "786-0 renal", "growth", "52.3% (inactive)"],
  ["O=C1/C(=C/c2ccc(-c3ccc(Cl)cc3)o2)SC(=S)N1CCc1ccc(O)cc1", "786-0 renal", "growth", "60.9% (inactive)"],
  ["O=C(Nc1ncc(Cc2ccc(Cl)cc2)s1)c1ccc2c(c1)OCCO2", "786-0 renal", "growth", "38.7% (inactive)"],
  ["[2H]C([2H])([2H])Oc1ccc(/C=C/C(=O)/C=C(/C=C/c2ccc(OC([2H])([2H])[2H])c(OC([2H])([2H])[2H])c2OC([2H])([2H])[2H])OB(F)F)c(OC([2H])([2H])[2H])c1OC([2H])([2H])[2H]", "786-0 renal", "growth", "70.9% (inactive)"],
  ["c1ccc2[nH]c(-c3ccc(-c4nccc5c4[nH]c4ccccc45)cc3)nc2c1", "786-0 renal", "growth", "2.97% (active)"],
  ["CC1OC(C(=O)N2CCN(CCO)CC2)CC1COC1CCCCC1 (configuration not stated)", "786-0 renal", "growth", "109% [50 µM] (inactive)"],
  ["CO[C@H]1/C=C/O[C@@]2(C)Oc3c(C)c(O)c4c(O)c(c5c(nc6cc(C)ccn65)c4c3C2=O)NC(=O)/C(C)=C\\C=C\\[C@H](C)[C@H](O)[C@@H](C)C(O)[C@@H](C)[C@H](OC(C)=O)[C@@H]1C (some centres not stated)", "786-0 renal", "growth", "95.3% (inactive)"],
  ["O=C(Nc1ccc2[nH]ncc2c1)c1csc(Nc2ccccc2)n1", "786-0 renal", "growth", "38.9% (inactive)"],
  ["CCN1C(=O)N(CC)C2C1NN=c1s/c(=C\\c3ccc([N+](=O)[O-])cc3)c(=O)n12 (configuration not stated)", "786-0 renal", "growth", "44.1% (inactive)"],
  ["C=C(C)Cn1c(SCC(=O)c2cccs2)nc2sc3c(c2c1=O)CCCC3", "786-0 renal", "growth", "52.6% (inactive)"],
  ["COc1ccc(C(=O)C2OC3=C(C(=O)CC(C)(C)C3)C2c2cccc(Oc3ccccc3)c2)cc1 (configuration not stated)", "786-0 renal", "growth", "93% (inactive)"],
  ["Oc1cccc(-c2nc(-c3n[nH]c(=S)n3-c3ccccc3)cc3c2[nH]c2ccccc23)c1", "786-0 renal", "growth", "18.4% (inactive)"],
  ["CS(=O)(=O)c1ccc(/C(=N/NC(N)=S)c2ccc(F)cc2)cc1", "786-0 renal", "growth", "102% (inactive)"],
  ["CC(C)(C#N)c1cc(C(=O)Nc2cc(Nc3ncccc3-c3ncnc4nc[nH]c34)ccc2F)cc(C(F)(F)F)c1", "786-0 renal", "growth", "64% (inactive)"],
  ["Cn1cc(-c2csc(-c3cn(C)c4ccc(F)cc34)n2)c2cnccc21", "786-0 renal", "growth", "-91.6% (active)"],
  ["CC(C)c1nc(N(C)S(C)(=O)=O)nc(-c2ccc(F)cc2)c1/C=C/C(=O)C[C@@H](O)CC(=O)O", "786-0 renal", "growth", "106% (inactive)"],
  ["CCOC(=O)/C(=C\\c1ccccc1Cl)P(=O)(OCC)OCC", "786-0 renal", "growth", "75.8% (inactive)"],
  ["Oc1ccc(Cc2ccc(O)c3ncccc23)c2cccnc12", "786-0 renal", "growth", "19% (inactive)"],
  ["CN(CCNc1ccc(C(=N)N)cc1)c1ccc(C(=N)N)cc1", "786-0 renal", "growth", "102% (inactive)"],
  ["CCOC(=O)CSc1nc2sc3c(c2c(=O)n1-c1ccccc1)CCCCC3", "786-0 renal", "growth", "109% (inactive)"],
  ["COc1cc(-c2c(-c3ccccc3)c[nH]c2C(=O)NCCCO)c(OC)c2c1OCO2", "786-0 renal", "growth", "102% (inactive)"],
  ["COc1ccc2c(c1)c(-c1nc(-c3cn(C)c4ccncc34)cs1)cn2C", "786-0 renal", "growth", "84.8% (inactive)"],
  ["COc1cc2c(c(OC)c1OC)CCC(c1cccc(C(=O)Nc3ccccc3Br)c1)O2 (configuration not stated)", "786-0 renal", "growth", "76.2% (inactive)"],
  ["CC1=NC(=S)NC(c2ccccc2)/C1=C1/CC(c2ccccc2O)NN1 (configuration not stated)", "786-0 renal", "growth", "100% (inactive)"],
  ["CCOC(=O)c1c2c(n3ccc(NC(=O)CCN4CCCC4)cc13)C(=O)c1ncccc1C2=O", "786-0 renal", "growth", "-88.2% (active)"],
  ["CC(C)n1nc(-c2ccc3oc(N)nc3c2)c2c(N)ncnc21", "786-0 renal", "growth", "-36.7% (active)"]
]}

Attribution: PubChem BioAssay (NCI)
